Property: normalized growth; scope: individual compounds
# methodDescription: chemical genetic growth profiling, strain panel (AID 1159580);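 also: tested at 20 µM; growth read once vehicle control cultures reached saturation at 30 °C; 1 = growth at the plate median or of vehicle wells; lower values mean less growth of the strain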
# assaySetup: S. cerevisiae deletion strains, growth OD, locus YLR113W, strain HOG1, hits give low values
About 2,000 (36%) of roughly 5,500 compounds were called active. Another 18% or so got no clear call; they are omitted. Some of the results follow.
measuredAttribute: normalized growth

# compound, resultNumber
measured = [
    ("COc1cc(-c2coc3cc(OCc4ccccc4)c(OC)c(O)c3c2=O)cc(O)c1OC", 1.02),
    ("O=C1[C@H](CCC(O)c2ccc(F)cc2)[C@@H](c2ccc(O)cc2)N1c1ccc(F)cc1 (stereo partly specified)", 1),
    ("O=C(Nc1ccc(OC(F)(F)F)cc1)OC1CN(C(c2ccccc2)c2ccccc2)C1", 0.943),
    ("O=c1[nH]oc2c1CCNC2", 0.974),
    ("Cc1c(S(=O)(=O)O)oc2c1C(=O)C(=O)c1c-2ccc2c1CCCC2(C)C", 0.967),
    ("COC(=O)C[C@H]1C(C)(C)C(=O)[C@@H]2CC3=C(CC[C@]4(C)C3=CC(=O)O[C@H]4c3ccoc3)[C@@]1(C)C2=O", 1.02),
    ("C=C1C(=O)O[C@@H]2C[C@@]3(C)CCC[C@H](C)C3=C[C@H]12", 0.991),
    ("Cc1ccc(C)c(OCCCC(C)(C)C(=O)O)c1", 0.752),
    ("O=c1cc[nH]c(=S)[nH]1", 1.01),
    ("CCN(CC)C(=O)c1cccc(C)c1", 0.975),
    ("COc1cc2c(cc1OC)C1Cc3ccc(OC)c(OC)c3CN1CC2 (stereo unspecified)", 0.978),
    ("Cc1coc2c1C(=O)C(=O)c1c-2ccc2c1CCCC2(C)C", 0.821),
    ("COC(=O)[C@@H]1OC(=O)[C@H]2O[C@@]23[C@@]1(C)CCC1[C@@]2(C)CCC(=O)C(C)(C)C2C[C@@H](OC(C)=O)[C@]13C (stereo partly specified)", 1.01),
    ("CC(C)C(=O)Nc1ccc([N+](=O)[O-])c(C(F)(F)F)c1", 0.93),
    ("COc1ccc(CCN2CCC(Nc3nc4ccccc4n3Cc3ccc(F)cc3)CC2)cc1", 0.976),
    ("COC(=O)C1=CCCN(C)C1", 0.994),
    ("CCOC(=O)c1ccc(O)cc1", 0.966),
    ("COc1cc(-c2coc3cc(OC)c(OC)c(OC)c3c2=O)cc(OC)c1OC", 0.98),
    ("O=C(Nc1ccc(OC(F)(F)F)cc1)N1CCN(c2nc(-c3ccccc3)ns2)CC1", 0.733),
    ("OCCOCCN1CCN(C2=Nc3ccccc3Sc3ccccc32)CC1", 1),
    ("CC1=CC2C(CC1=O)C(C)=CCC2C(C)C (stereo unspecified)", 0.968),
]
